- Test system: pancreatic cell lines (PCLs)
- experimental_details: Chemosensitivity of pancreatic cell lines by MUC5AC expression level
- Assay type: cell-based
- settings: compared with MUC5AC low to moderate PCLs
reported_metric: chemosensitivity of MUC5AC high PCLs

O=c1[nH]cc(F)c(=O)[nH]1 [5FU, fluorouracil]
more sensitive
N.N.[Cl][Pt][Cl] [Cisplatin, cisplatin]
more sensitive
O=C1[O][Pt]2([NH][C@@H]3CCCC[C@H]3[NH]2)[O]C1=O [Oxaliplatin, oxaliplatin]
more sensitive

###

- Tested on: pancreatic cell lines (PCLs)
- experimental_details: Chemosensitivity of pancreatic cell lines by MUC5AC expression level
- Assay type: cell-based
- settings: compared with MUC5AC negative PCLs
reported_metric: chemosensitivity of MUC5AC high PCLs

# example entries with known answers
O=C1[O][Pt]2([NH][C@@H]3CCCC[C@H]3[NH]2)[O]C1=O
resistant
O=c1[nH]cc(F)c(=O)[nH]1
more sensitive
CCc1c2c(nc3ccc(OC(=O)N4CCC(N5CCCCC5)CC4)cc13)-c1cc3c(c(=O)n1C2)COC(=O)[C@]3(O)CC
more sensitive
N.N.[Cl][Pt][Cl] [Cisplatin, cisplatin]
more sensitive

Now let's try a different one.
Quote pancreatic cell lines (PCLs) chemosensitivity of MUC5AC high PCLs for entry Nc1ccn([C@@H]2O[C@H](CO)[C@@H](O)C2(F)F)c(=O)n1 .
resistant
